tested on: paw twitch; test: Twitch depression (muscle relaxant effect) in anesthetized dogs; dog paw twitch; assay type: in vivo, mongrel dogs; settings: Table V, dog, at equi-efficacious dose
As shown below, each of these molecules has a reported Recovery (RECOV.) value.
observable: Recovery (RECOV.) (min)

>  <molecule>
COc1cc2c3cc1Oc1cc(ccc1O)C[C@@H]1c4c(cc(OC)c(O)c4Oc4ccc(cc4)C[C@@H]3N(C)CC2)CC[N+]1(C)C [d-tubocurarine]

>  <reported.measurement>
55.3

$$$$
>  <molecule>
COc1cc2c(cc1OC)C(Cc1cc(OC)c(OC)c(OC)c1)[N+](C)(CCCOC(=O)CCC=CCCC(=O)OCCC[N+]1(C)CCc3cc(OC)c(OC)cc3C1Cc1cc(OC)c(OC)c(OC)c1)CC2 (stereo not drawn) [BW1090]

>  <reported.measurement>
70.3

$$$$
>  <molecule>
COc1ccc(CC2c3cc(OC)c(OC)cc3CC[N+]2(C)CCC(=O)OCCCCCOC(=O)CC[N+]2(C)CCc3cc(OC)c(OC)cc3C2Cc2ccc(OC)c(OC)c2)cc1OC (stereo not drawn) [atracurium]

>  <reported.measurement>
20.4

$$$$

Source: patent US4863918A
